Let's look at some binders and their measured pKd.
Tested On: Biotinylated SARS-CoV-2 S1 protein (ACRO, S1N-C82E8) (UniProt P0DTC2 16-685)
Protocol Notes: BLI
Please treat pKd as minus the base-10 logarithm of the molar concentration.

Below, 2 binders whose answers are already recorded.
{"Binder": "Ab 23 scFv-Fc (scFv, V domains shown) VH: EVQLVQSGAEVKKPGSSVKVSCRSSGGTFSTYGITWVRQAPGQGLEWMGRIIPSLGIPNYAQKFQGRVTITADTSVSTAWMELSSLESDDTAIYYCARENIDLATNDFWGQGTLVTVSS VL: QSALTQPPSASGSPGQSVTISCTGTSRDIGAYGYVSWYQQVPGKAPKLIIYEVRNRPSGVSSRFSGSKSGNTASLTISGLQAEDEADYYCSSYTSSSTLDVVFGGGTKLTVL", "Experimental Endpoint": "pKd", "Readout Value": 9.47}
{"Binder": "Ab_16 (scFv, V domains shown) VH: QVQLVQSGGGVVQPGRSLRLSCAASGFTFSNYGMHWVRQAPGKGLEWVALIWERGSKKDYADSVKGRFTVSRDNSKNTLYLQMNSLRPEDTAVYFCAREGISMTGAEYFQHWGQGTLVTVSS VL: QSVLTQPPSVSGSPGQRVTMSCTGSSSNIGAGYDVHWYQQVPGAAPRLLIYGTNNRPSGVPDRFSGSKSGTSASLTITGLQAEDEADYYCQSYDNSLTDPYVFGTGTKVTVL", "Experimental Endpoint": "pKd", "Readout Value": 8.66}

Lab note: next binder to report on.
What the record says about Ab 14 scFv-Fc (scFv, V domains shown) VH: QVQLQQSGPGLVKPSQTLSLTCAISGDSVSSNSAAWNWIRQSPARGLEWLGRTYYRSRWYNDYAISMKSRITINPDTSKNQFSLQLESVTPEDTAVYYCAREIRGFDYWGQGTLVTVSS VL: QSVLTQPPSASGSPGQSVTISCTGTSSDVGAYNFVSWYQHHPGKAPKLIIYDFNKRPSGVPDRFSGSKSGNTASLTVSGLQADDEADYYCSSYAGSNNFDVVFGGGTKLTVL : pKd is 9.23

The reported measurements were obtained from patent US20230374114A1.
